# Test system: Staphylococcus aureus V41
# RUN DESCRIPTION: MIC, standard agar-dilution assay, Staphylococcus aureus V41
# Assay type: cell-based
# TEST PARAMETERS: Staphylococcus aureus V41; penicillin-resistant strain; agar dilution; read-out: MIC
Readings of MIC for the listed molecules
MEASURED PARAMETER: MIC (µg/mL)

CCC1OC(=O)CC(O)C(C)C(OC2OC(C)C(O)C(N(C)C)C2O)C(CCCl)CC(C)C(=O)C=CC(C)=CC1COC1OC(C)C(O)C(OC)C1OC (stereo not shown) [Compound 21, 20-DH-DO-20-Chlorodesmycosin]
0.12
CCC1OC(=O)CC(O)C(C)C(OC2OC(C)C(OC3CC(C)(O)C(O)C(C)O3)C(N(C)C)C2O)C(CCSc2nnnn2C)CC(C)C(=O)C=CC(C)=CC1COC1OC(C)C(O)C(OC)C1OC (stereo not shown) [Compound 5]
1
CCC1OC(=O)CC(O)C(C)C(OC2OC(C)C(OC3CC(C)(O)C(O)C(C)O3)C(N(C)C)C2O)C(CCOc2ccc(OC)cc2)CC(C)C(=O)C=CC(C)=CC1COC1OC(C)C(O)C(OC)C1OC (stereo not shown) [Compound 14, 20-DH-20-O-(p-Methoxyphenyl)tylosin]
0.5
CCC1OC(=O)CC(O)C(C)C(OC2OC(C)C(O)C(N(C)C)C2O)C(CCOC(C)=O)CC(C)C(=O)C=CC(C)=CC1COC1OC(C)C(O)C(OC)C1OC (stereo not shown) [Compound 29, 20-DH-20-O-Acetyldesmycosin]
0.5

---

# System: Streptococcus pyogenes C203
# RUN DESCRIPTION: In vivo protection of mice experimentally infected with S. pyogenes C203
# TEST PARAMETERS: mice; subcutaneous; doses given 1 and 4 hours post-infection
Readings of ED50, Subcutaneous for the listed molecules
MEASURED PARAMETER: ED50, Subcutaneous (mg/kg × 2)

CCC1OC(=O)CC(O)C(C)C(OC2OC(C)C(OC(C)=O)C(N(C)C)C2OC(C)=O)C(CCOc2ccccc2)CC(C)C(=O)C=CC(C)=CC1COC1OC(C)C(O)C(OC)C1OC (stereo not drawn)
2.9
CCOC(=O)NN(CCC1CC(C)C(=O)C=CC(C)=CC(COC2OC(C)C(O)C(OC)C2OC)C(CC)OC(=O)CC(O)C(C)C1OC1OC(C)C(O)C(N(C)C)C1O)C(=O)OCC (stereo not drawn)
2.1

---

# System: Streptococcus pyogenes C203
# RUN DESCRIPTION: In vivo protection of mice experimentally infected with S. pyogenes C203
# TEST PARAMETERS: mice; subcutaneous; doses given 1 and 4 hours post-infection
MEASURED PARAMETER: ED50, Subcutaneous (mg/kg × 2)

CCC1OC(=O)CC(O)C(C)C(OC2OC(C)C(O)C(N(C)C)C2O)C(CCOc2ncnc3ccccc23)CC(C)C(=O)C=CC(C)=CC1COC1OC(C)C(O)C(OC)C1OC (stereo not drawn) [Compound 51, 20-DH-20-O-(Quinazolin-4-yl)desmycosin]
5.4
CCC1OC(=O)CC(O)C(C)C(OC2OC(C)C(O)C(N(C)C)C2O)C(CCN=[N+]=[N-])CC(C)C(=O)C=CC(C)=CC1COC1OC(C)C(O)C(OC)C1OC (stereo not drawn) [Compound 44, 20-DH-DO-20-Azidodesmycosin]
3.8
CCC1OC(=O)CC(O)C(C)C(OC2OC(C)C(O)C(N(C)C)C2O)C(CCN2C(=O)c3ccccc3C2=O)CC(C)C(=O)C=CC(C)=CC1COC1OC(C)C(O)C(OC)C1OC (stereo not drawn) [Compound 43, 20-DH-DO-20-N-Phthalimidodesmycosin]
1.6
CCC1OC(=O)CC(O)C(C)C(OC2OC(C)CC(N(C)C)C2O)C(CCOc2ccccc2)CC(C)C(=O)C=CC(C)=CC1COC1OC(C)C(O)C(OC)C1OC (stereo not drawn) [Compound 70, 20-DH-20-O-Phenyl-4'-deoxydesmycosin]
3.1
CCC(=O)OC1C(OC2C(CCN3C(=O)c4ccccc4C3=O)CC(C)C(=O)C=CC(C)=CC(COC3OC(C)C(O)C(OC)C3OC)C(CC)OC(=O)CC(O)C2C)OC(C)C(O)C1N(C)C (stereo not drawn) [Compound 65]
1.7

---

# Test system: Staphylococcus aureus X400
# RUN DESCRIPTION: MIC, standard agar-dilution assay, Staphylococcus aureus X400
# Assay type: cell-based
# TEST PARAMETERS: Staphylococcus aureus, X400
MEASURED PARAMETER: log10(MIC) (log10 of the value in µg/mL)

CCC1OC(=O)CC(O)C(C)C(OC2OC(C)C(OC3CC(C)(O)C(O)C(C)O3)C(N(C)C)C2O)C(CCN=[N+]=[N-])CC(C)C(=O)C=CC(C)=CC1COC1OC(C)C(O)C(OC)C1OC (centres unmarked)
0.30
CCC1OC(=O)CC(O)C(C)C(OC2OC(C)C(O)C(N(C)C)C2O)C(CCO[N+](=O)[O-])CC(C)C(=O)C=CC(C)=CC1COC1OC(C)C(O)C(OC)C1OC (centres unmarked)
-0.60
CCC1OC(=O)CC(O)C(C)C(OC2OC(C)C(OC3CC(C)(O)C(O)C(C)O3)C(N(C)C)C2O)C(CCOC(=O)COc2ccccc2)CC(C)C(=O)C=CC(C)=CC1COC1OC(C)C(O)C(OC)C1OC (centres unmarked)
0.00
CCC1OC(=O)CC(O)C(C)C(OC2OC(C)C(OC3CC(C)(O)C(O)C(C)O3)C(N(C)C)C2O)C(CCOc2ccc([N+](=O)[O-])cc2)CC(C)C(=O)C=CC(C)=CC1COC1OC(C)C(O)C(OC)C1OC (centres unmarked)
0.30
CCC1OC(=O)CC(O)C(C)C(OC2OC(C)C(OC3CC(C)(O)C(O)C(C)O3)C(N(C)C)C2O)C(CCNC(=O)Cc2ccccc2)CC(C)C(=O)C=CC(C)=CC1COC1OC(C)C(O)C(OC)C1OC (centres unmarked)
0.30
CCC1OC(=O)CC(O)C(C)C(OC2OC(C)C(OC3CC(C)(O)C(O)C(C)O3)C(N(C)C)C2O)C(CCN2C(=O)c3ccccc3C2=O)CC(C)C(=O)C=CC(C)=CC1COC1OC(C)C(O)C(OC)C1OC (centres unmarked)
0.30
CCC1OC(=O)CC(O)C(C)C(OC2OC(C)C(OC3CC(C)(O)C(O)C(C)O3)C(N(C)C)C2O)C(CCOC(=O)c2nn(CC)c3cc4c(cc3c2=O)OCO4)CC(C)C(=O)C=CC(C)=CC1COC1OC(C)C(O)C(OC)C1OC (centres unmarked)
0.90
CCC1OC(=O)CC(O)C(C)C(OC2OC(C)C(OC3CC(C)(O)C(O)C(C)O3)C(N(C)C)C2O)C(CCOc2cc(Cl)cc(Cl)c2)CC(C)C(=O)C=CC(C)=CC1COC1OC(C)C(O)C(OC)C1OC (centres unmarked)
0.60

---

# Test system: Staphylococcus epidermidis EPI2
# RUN DESCRIPTION: MIC, standard agar-dilution assay, Staphylococcus epidermidis EPI2
# Type: cell-based
# TEST PARAMETERS: Staphylococcus epidermidis, EPI2
MEASURED PARAMETER: MIC (µg/mL)

CCC1OC(=O)CC(O)C(C)C(OC2OC(C)C(O)C(N(C)C)C2O)C(CCOC(=O)c2nn(CC)c3cc4c(cc3c2=O)OCO4)CC(C)C(=O)C=CC(C)=CC1COC1OC(C)C(O)C(OC)C1OC (stereo not drawn)
4
CCC1CC(C)C(=O)C=CC(C)=CC(COC2OC(C)C(O)C(O)C2OC)C(CC)OC(=O)CC(O)C(C)C1OC1OC(C)C(O)C(N(C)C)C1O (stereo not drawn)
0.25
CCC1OC(=O)CC(O)C(C)C(OC2OC(C)C(OC3CC(C)(O)C(O)C(C)O3)C(N(C)C)C2O)C(CCN2C(=O)c3ccccc3C2=O)CC(C)C(=O)C=CC(C)=CC1COC1OC(C)C(O)C(OC)C1OC (stereo not drawn)
1
CCC1OC(=O)CC(O)C(C)C(OC2OC(C)C(O)C(N(C)C)C2O)C(CCOC)CC(C)C(=O)C=CC(C)=CC1COC1OC(C)C(O)C(OC)C1OC (stereo not drawn)
0.5
CCC1OC(=O)CC(O)C(C)C(OC2OC(C)C(O)C(N(C)C)C2O)C(CCOc2cccc(N(C)C)c2)CC(C)C(=O)C=CC(C)=CC1COC1OC(C)C(O)C(OC)C1OC (stereo not drawn)
0.25
CCC1OC(=O)CC(O)C(C)C(OC2OC(C)C(OC3CC(C)(O)C(O)C(C)O3)C(N(C)C)C2O)C(CCOc2ccc(OC)cc2)CC(C)C(=O)C=CC(C)=CC1COC1OC(C)C(O)C(OC)C1OC (stereo not drawn)
1
CCC1OC(=O)CC(O)C(C)C(OC2OC(C)C(O)C(N(C)C)C2O)C(CCI)CC(C)C(=O)C=CC(C)=CC1COC1OC(C)C(O)C(O)C1OC (stereo not drawn)
0.5
CCC1OC(=O)CC(O)C(C)C(OC2OC(C)C(OC3CC(C)(O)C(O)C(C)O3)C(N(C)C)C2O)C(CCOc2cccc(N(C)C)c2)CC(C)C(=O)C=CC(C)=CC1COC1OC(C)C(O)C(OC)C1OC (stereo not drawn)
1
CCC1OC(=O)CC(O)C(C)C(OC2OC(C)C(O)C(N(C)C)C2O)C(CCO[N+](=O)[O-])CC(C)C(=O)C=CC(C)=CC1COC1OC(C)C(O)C(OC)C1OC (stereo not drawn)
0.25
